# system_name: RORγt ligand-binding domain (RORγt-LBD) (Homo sapiens, UniProt P51449)
# Construct: 20 nM recombinantly expressed RORγ-LBD fused to GST
# Sequence (P51449 269-508 limits assumed): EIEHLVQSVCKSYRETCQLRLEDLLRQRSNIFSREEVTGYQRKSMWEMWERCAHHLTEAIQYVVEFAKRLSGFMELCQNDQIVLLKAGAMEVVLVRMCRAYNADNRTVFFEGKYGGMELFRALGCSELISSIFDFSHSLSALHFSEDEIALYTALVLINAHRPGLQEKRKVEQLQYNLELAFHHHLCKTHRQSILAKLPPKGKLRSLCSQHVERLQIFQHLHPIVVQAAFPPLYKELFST
# test_details: Time-resolved FRET (TR-FRET) RORγt coactivator assay
# run_parameters: GST-RORγ-LBD, biotinylated RIP140 peptide, coactivator displacement
pIC50: −log10 of the molar value.
attribute_measured: pIC50

[
  {
    "compound": "COc1cc(C)ccc1C(NC(=O)Cc1ccc2[nH]cc(CCC(=O)OC(C)(C)C)c2c1)c1ccccc1 (centres unmarked)",
    "system_name": "RORγt ligand-binding domain (RORγt-LBD) (Homo sapiens, UniProt P51449)",
    "val": "> 6.00"
  },
  {
    "compound": "COc1ccc(C(NC(=O)Cc2ccc3[nH]cc(CCC(=O)O)c3c2)c2ccccc2)c(N2CCCCCC2)c1 (centres unmarked)",
    "system_name": "RORγt ligand-binding domain (RORγt-LBD) (Homo sapiens, UniProt P51449)",
    "val": "> 6.00"
  },
  {
    "compound": "Cc1ccc(C(CC(C)C)NC(=O)Cc2ccc3[nH]cc(CCC(=O)OC(C)(C)C)c3c2)c(N(C)C)c1 (centres unmarked)",
    "system_name": "RORγt ligand-binding domain (RORγt-LBD) (Homo sapiens, UniProt P51449)",
    "val": "5.00 to 6.00"
  },
  {
    "compound": "O=C(O)CCc1c[nH]c2ncc(NC(=O)NC(c3ccccc3)c3ccccc3N3CCCCC3)cc12 (centres unmarked)",
    "system_name": "RORγt ligand-binding domain (RORγt-LBD) (Homo sapiens, UniProt P51449)",
    "val": "5.00 to 6.00"
  },
  {
    "compound": "COC(=O)Cc1c[nH]c2ccc(CC(=O)NC(c3ccccc3)c3ccccc3N3CCCC3)cc12 (centres unmarked)",
    "system_name": "RORγt ligand-binding domain (RORγt-LBD) (Homo sapiens, UniProt P51449)",
    "val": "> 6.00"
  },
  {
    "compound": "COc1cc(C)ccc1C(NC(=O)Cc1ccc2[nH]cc(CCC(=O)O)c2c1)c1ccccc1 (centres unmarked)",
    "system_name": "RORγt ligand-binding domain (RORγt-LBD) (Homo sapiens, UniProt P51449)",
    "val": "> 6.00"
  },
  {
    "compound": "CCNc1cc(C)ccc1C(NC(=O)Cc1ccc2[nH]cc(CCC(=O)OC(C)(C)C)c2c1)c1ccccc1 (centres unmarked)",
    "system_name": "RORγt ligand-binding domain (RORγt-LBD) (Homo sapiens, UniProt P51449)",
    "val": "> 6.00"
  },
  {
    "compound": "Cc1ccc(C(C(=O)NCc2ccc3[nH]cc(CCC(=O)O)c3c2)c2ccccc2)c(N2CCCCC2)c1 (centres unmarked)",
    "system_name": "RORγt ligand-binding domain (RORγt-LBD) (Homo sapiens, UniProt P51449)",
    "val": "> 6.00"
  }
]

----------
# system_name: RORγt ligand-binding domain (RORγt-LBD) (Homo sapiens, UniProt P51449)
# Construct: 20 nM recombinantly expressed RORγ-LBD fused to GST
# Sequence (P51449 269-508 limits assumed): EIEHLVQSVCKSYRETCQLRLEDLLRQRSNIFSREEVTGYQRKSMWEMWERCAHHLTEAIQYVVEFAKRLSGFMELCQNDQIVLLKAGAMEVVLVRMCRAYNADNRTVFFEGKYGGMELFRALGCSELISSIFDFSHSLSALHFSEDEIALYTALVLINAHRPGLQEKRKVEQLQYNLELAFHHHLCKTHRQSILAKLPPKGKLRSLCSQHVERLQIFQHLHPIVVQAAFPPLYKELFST
# test_details: Time-resolved FRET (TR-FRET) RORγt coactivator assay
# Type: biochemical
# run_parameters: GST-RORγ-LBD, biotinylated RIP140 peptide, coactivator displacement

[
  {
    "molecule": "Cc1ccc(C(NC(=O)Cc2ccc3[nH]cc(CCC(=O)OC(C)(C)C)c3c2)c2ccccc2)c(N2CCN(Cc3ccccc3)CC2)c1 (stereo not shown) [compound 263]",
    "IC50": "< 1 µM"
  },
  {
    "molecule": "COC(=O)Cc1c[nH]c2ccc(CC(=O)NC(c3ccccc3)c3ccc(C(F)(F)F)cc3N3CCCC3)cc12 (stereo not shown) [Cpd. 88]",
    "IC50": "< 1 µM"
  },
  {
    "molecule": "CC(C)(C)OC(=O)CCc1c[nH]c2ccc(CC(=O)NC(c3ccccc3)c3ccc(Br)cc3N3CCCC3)cc12 (stereo not shown) [Cpd. 49]",
    "IC50": "1 to 10 µM"
  },
  {
    "molecule": "Cc1cc(Cl)ccc1C(NC(=O)Cc1ccc2[nH]cc(CCC(=O)OC(C)(C)C)c2c1)c1ccccc1 (stereo not shown) [Cpd. 34]",
    "IC50": "1 to 10 µM"
  }
]
